Source listed as patent US20260151494A1.

target: T1, human CD71 extracellular domain (human, UniProt P02786 89-760, biotinylated); experiment: primary ELISA, RLU over HSA
T1 construct: also called hCD71; CD71-ECD
T1 sequence (P02786 89-760): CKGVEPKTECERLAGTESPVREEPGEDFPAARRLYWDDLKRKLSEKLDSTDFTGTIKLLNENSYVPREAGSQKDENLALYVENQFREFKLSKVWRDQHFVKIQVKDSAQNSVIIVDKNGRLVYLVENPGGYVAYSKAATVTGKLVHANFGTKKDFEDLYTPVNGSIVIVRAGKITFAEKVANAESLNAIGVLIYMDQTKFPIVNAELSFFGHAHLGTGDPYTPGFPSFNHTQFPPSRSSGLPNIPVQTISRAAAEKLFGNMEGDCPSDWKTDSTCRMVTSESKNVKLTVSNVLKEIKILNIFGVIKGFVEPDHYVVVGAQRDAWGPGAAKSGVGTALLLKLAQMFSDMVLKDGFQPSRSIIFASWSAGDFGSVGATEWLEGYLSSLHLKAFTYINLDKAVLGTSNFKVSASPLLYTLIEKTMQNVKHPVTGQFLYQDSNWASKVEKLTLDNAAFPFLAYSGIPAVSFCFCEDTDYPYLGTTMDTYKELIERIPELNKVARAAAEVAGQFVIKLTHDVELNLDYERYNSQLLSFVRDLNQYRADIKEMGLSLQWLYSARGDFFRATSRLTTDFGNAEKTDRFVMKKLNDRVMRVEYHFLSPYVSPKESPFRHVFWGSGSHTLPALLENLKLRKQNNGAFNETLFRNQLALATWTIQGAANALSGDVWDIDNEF
quantityKind: hCD71:HSA

# binder, observed
data = [
    ("CD71-binding FN3 domain of SEQ ID NO: 483 (designed binder) MLPAPKNLVVSRVTEDSARLSWTAPDAAFDSFFIGYLEPQPPGEAITLVVPGSERSYDLTGLKPGTEYNVTIQGVKGGFPSDPLVASFTT", 136),
    ("CD71-binding FN3 domain of SEQ ID NO: 499 (designed binder) MLPAPKNLVVSRVTEDSARLSWTAPDAAFDSFFIGYLEPQPPGEAISLYVPGSERSYDLTGLKPGTEYNVTIQGVKGGFPSSPLFADFTT", 132),
    ("CD71-binding FN3 domain of SEQ ID NO: 453 (designed binder) MLPAPKNLVVSRVTEDSARLSWTAQDAAFDSFFIGYLEPQPPGEAIALLVPGSERSYDLTGLKPGTEYNVTIQGVKGGFPSHPLSASFTT", 142),
    ("CD71-binding FN3 domain of SEQ ID NO: 452 (designed binder) MLPAPKNLVVSRVTEDSARLSWTAPDAAFDSFFIGYLEPQPPGEAIHLQVPGSERSYDLTGLKPGTEYNVTIQGVKGGFPSIPLVAQFTT", 88),
    ("CD71-binding FN3 domain of SEQ ID NO: 470 (designed binder) MLPAPKNLVVSRVTEDSARLSWTAPDAAFDSFFIGYLEPQPPGEAITLLVPGSERSYDLTGLKPGTEYNVTIQGVKGGFPSMPLSAIFTT", 79),
]

P. CD71-binding FN3 domain of SEQ ID NO: 448 (designed binder) MLPAPKNLVVSRVTEDSARLSWTAPDAAFDSFFIGYLEPQPPGEAIDLYVPGSERSYDLTGLKPGTEYNVTIQGVKGGFPSMPLYARFTT
Q. CD71-binding FN3 domain of SEQ ID NO: 476 (designed binder) MLPAPKNLVVSRVTEDSARLSWTAPDAAFDSFFIGYLEPQPPGEAIHLQVPGSERSYDLTGLKPGTEYNVTIQGVKGGFPSIPLIAVFTT
Exercise: Which value of hCD71:HSA is smaller, the one for P or the one for Q ? When you have decided, please share the label of that item.
Solution: P
